B1: ZNF449 (parent)
chain: TLHQRTHTEERPFKCNYCGKSFRQ

variants of: B1; assay: protein stability index of a GFP-peptide fusion (GPS, HEK-293T) (PSI 1-6); higher = more stable; settings: c terminus: a fixed tail appended;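 further: lentivirally expressed fusions sorted by FACS into six bins by GFP to DsRed ratio, PSI derived from sequencing read proportions per bin multiplied by bin number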
// protein stability index lookup, one value per entry
Lab note: write the figure by itself, no unit.

Tell me protein stability index reported for `Q4I` 1.71
